biological target: MyD88^TIR (Homo sapiens); construct: MyD88 (residues 148–296); 6xHis; made in house; host or cells: E. coli BL21 (DE3); test: T‐Surf phage library (P8 and P3) selection against MyD88^TIR, four rounds, NGS read counts; format: binding; conditions: P8_MyD88: rank by count after grouping
value kind: Rank (after)

INSERT INTO measurements (macromolecule_sequence, system_tested, value_kind, value_observed) VALUES
  ('HFETTEGNFYKFFLFF', 'MyD88^TIR (Homo sapiens)', 'Rank (after)', 165),
  ('QDLEQFYERLISRILQ', 'MyD88^TIR (Homo sapiens)', 'Rank (after)', 113);

P: LGYHWVDWEYCVGIED
Q: YYDSRWALDELLKILYANETM
R: YFRNESEFIQEIVQWV
Arrange the 3 sequences from largest to smallest Rank (after). Record the ranking as a list of labels in the requested order.
P, Q, R

###

target: MyD88^TIR (Homo sapiens); construct: MyD88 (residues 148–296); 6xHis; made in house; host or cells: E. coli BL21 (DE3); test: T‐Surf phage library (P8 and P3) selection against MyD88^TIR, four rounds, NGS read counts; type: binding; conditions: P8_MyD88: rank by count before grouping
value kind: Rank (before)

Example results:
INSERT INTO assay_data (macromolecule_sequence, value_kind, value_observed) VALUES
  ('DWVLDYLLPNLERPAG', 'Rank (before)', 2396),
  ('DWVWDYLLLSVFQTIFARRTE', 'Rank (before)', 1033),
  ('DPQDLDWFYKRLVSLL', 'Rank (before)', 724),
  ('WALNELLEILKAREDI', 'Rank (before)', 123),
  ('QYLRWPEDFQDVGWFL', 'Rank (before)', 161),
  ('DPQGRDWFYERLVSLF', 'Rank (before)', 2672),
  ('PQELEWFHKRLVRLIL', 'Rank (before)', 3496),
  ('NYADSSWALDELLAIM', 'Rank (before)', 184);

P: WALQELVKILQAKIFL
Q: DSDPGSDLLIKIWAAL
// compare measured Rank (before), left P , right Q , return larger // return label of chosen record
Q

I: NFGYSTWALDELVKIM
II: DPQDLDWFYEHLFSQM
Looking only at measured Rank (before), which entry is lower, I or II ? // return label of chosen record
I

P: GFIDNLYQALANMGIH
Q: YAASPWWFDELVRIVC
R: VQWDDPWFWDKLAYA
S: DPQDLDWFYERLVSPL
T: YASSSWALDELWNIF
Arrange the 5 sequences from largest to smallest Rank (before). Record the ranking as a list of labels in the requested order.
Q, R, S, T, P
(Q: 1723, R: 1009, S: 396, T: 193, P: 129)

###

molecular target: MyD88^TIR (Homo sapiens, UniProt Q99836); construct: MyD88 (residues 148–296); 6xHis; made in house; host or cells: E. coli BL21 (DE3); assay: T‐Surf phage library (P8 and P3) selection against MyD88^TIR, four rounds, NGS read counts; assay type: binding; conditions: P8 library, selection against MyD88 TIR; rank by count before grouping
Sequence (Q99836 148-296): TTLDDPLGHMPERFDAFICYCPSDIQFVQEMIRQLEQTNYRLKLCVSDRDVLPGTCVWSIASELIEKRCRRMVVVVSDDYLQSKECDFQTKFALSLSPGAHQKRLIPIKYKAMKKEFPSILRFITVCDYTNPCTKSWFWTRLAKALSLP
value kind: P8_MyD88 Rank (before)

Example results:
INSERT INTO assay_data (macromolecule_sequence, value_kind, value_observed) VALUES
  ('YVDSPWALDELVKILQ', 'P8_MyD88 Rank (before)', 300),
  ('LGYHWRDWEYFVGLED', 'P8_MyD88 Rank (before)', 3302),
  ('WALIELRTIMELWSGN', 'P8_MyD88 Rank (before)', 377),
  ('DPQALDWFYERLVRLF', 'P8_MyD88 Rank (before)', 2689),
  ('DPQDLDWFYERLFSQT', 'P8_MyD88 Rank (before)', 2858);

a: LGYQWIEWEYFVGIED
b: YASYDDNDYYWVTHVLLRFV
Looking only at measured P8_MyD88 Rank (before), which entry is lower, a or b ? // return label of chosen record
a
(a: 1186, b: 1788)

###

target: MyD88^TIR (Homo sapiens); construct: MyD88 (residues 148–296); 6xHis; made in house; host or cells: E. coli BL21 (DE3); assay: T‐Surf phage library (P8 and P3) selection against MyD88^TIR, four rounds, NGS read counts; format: binding; settings: P3_MyD88: rank by count after grouping
value kind: Rank (after)

INSERT INTO measurements (macromolecule_sequence, value_kind, value_observed) VALUES
  ('NQWRHALTAEANLSGW', 'Rank (after)', 408),
  ('YTAMTNSGFHTFRGND', 'Rank (after)', 429),
  ('WFWDKLKYALHRNRI', 'Rank (after)', 406);

###

molecular target: MyD88^TIR (Homo sapiens, UniProt Q99836); construct: MyD88 (residues 148–296); 6xHis; made in house; host or cells: E. coli BL21 (DE3); assay: T‐Surf phage library (P8 and P3) selection against MyD88^TIR, four rounds, NGS read counts; type: binding; settings: P8_MyD88: rank by NGS read count before grouping
value kind: Rank (before)

Example results:
INSERT INTO measurements (macromolecule_sequence, value_observed) VALUES
  ('DPQLLVCFYERVVRMF', 3025),
  ('DPHGLEWIYERLVSLF', 2629),
  ('DRSIWDRLLYSLHVTE', 3141),
  ('DPQDLECVYERLVSLF', 2846),
  ('LGYHWMEWEYVVGIED', 3299),
  ('LGYHWEYWVYFVGIED', 3237);

P: LGYRWGDWEYFVGIEE
Q: WALVKLLKILYANDTM
Looking only at measured Rank (before), which entry is lower, P or Q ? // return label of chosen record
Q

###

biological target: MyD88^TIR (Homo sapiens, UniProt Q99836); construct: MyD88 (residues 148–296); 6xHis; made in house; host or cells: E. coli BL21 (DE3); assay: T‐Surf phage library (P8 and P3) selection against MyD88^TIR, four rounds, NGS read counts; assay type: binding; details: P8_MyD88 pool: P8 T-Surf phage library, 4th round of selection against MyD88 TIR, share of NGS reads
value kind: Population (%)

Example results:
INSERT INTO assay_data (macromolecule_sequence, units_text, value_observed) VALUES
  ('HYTDSYFALHELALLL', '%', 0.0119),
  ('DPQDLEWFYERLVSLF', '%', 0.0112),
  ('ELWVLRYLLPTLEEQQ', '%', 0.00809),
  ('DWLPGRTLFENLWASV', '%', 0.00886),
  ('DPQDLDWFYERLVNLF', '%', 0.00925);

P: VASHWALEELRMIMDF
Q: GTFIDYLYHRLMEEGI
Looking only at measured Population, which entry is lower, P or Q ? // return label of chosen record
P

P: LVYHWIDWEYFVGIED
Q: WALQELVKILQAKIFL
R: DPQDLDWLYERLVSLF
Please put the entries in order of rising Population. Record the ranking as a list of labels in the requested order.
R, P, Q
(R: 0.00617%, P: 0.0108%, Q: 0.02%)

a: WALQELLEILKANREL
b: NFGYSTWALDELVKIM
Looking only at measured Population, which entry is lower, a or b ? // return label of chosen record
a

1: QYLRWPEDFQDVGWFL
2: YFRNESEFIQEIVQWV
3: LGYHWIDWEYFV
4: DPQDLGWFYERLVSLF
Please put the entries in order of rising Population. Record the ranking as a list of labels in the requested order.
4, 1, 2, 3
(4: 0.00617%, 1: 0.00925%, 2: 0.0162%, 3: 0.0274%)

1: IVQALWSKVHHSLTLF
2: DSDPGSDLLIKIWAAL
3: GFIDNLYQALANMGIH
Arrange the 3 sequences from largest to smallest Population. Record the ranking as a list of labels in the requested order.
3, 1, 2

A: NYADSSWALDELLAIM
B: WALDELLKILDAKETM
// compare measured Population, left A , right B , return larger // return label of chosen record
B

###

target: MyD88^TIR (Homo sapiens, UniProt Q99836); construct: MyD88 (residues 148–296); 6xHis; made in house; host or cells: E. coli BL21 (DE3); assay: T‐Surf phage library (P8 and P3) selection against MyD88^TIR, four rounds, NGS read counts; type: binding; conditions: P8 library, selection against MyD88, rank by count before grouping
value kind: P8_MyD88 Rank (before)

INSERT INTO measurements (macromolecule_sequence, value_observed) VALUES
  ('DIQWALQKLMQIMEAF', 3070),
  ('WLLDQLDKILEAHGTT', 1380),
  ('QDLGWFYERLFSQM', 3564),
  ('PQDQEWFYERIVSLP', 3492),
  ('LGYHWIDWAYSVGIED', 3251);

a: DPLHLDWHYERLVSTD
b: YYDSRWALDELWLILEQR
Looking only at measured P8_MyD88 Rank (before), which entry is lower, a or b ? // return label of chosen record
b

1: LGYHCHDREYFVGIED
2: GLSWGPYEWCRGLYDA
Looking only at measured P8_MyD88 Rank (before), which entry is lower, 1 or 2 ? // return label of chosen record
2
(2: 2294, 1: 3311)

a: DWVWDYLLPDLLGPAG
b: QDLEQFYERLVSLI
// compare measured P8_MyD88 Rank (before), left a , right b , return larger // return label of chosen record
b

1: PRDLEWFYEHLVSLIL
2: YLLAGDFWIFFTLLTA
// compare measured P8_MyD88 Rank (before), left 1 , right 2 , return larger // return label of chosen record
1
